system: P. falciparum 3D7 growth, pLDH absorbance; test: blood-stage malaria parasite growth potency – strain 3D7, dose response (AID 2305)
// boundary case: IC50 equal to 800 nM maps to False; strictly smaller maps to True

Determine whether this compound shows IC50 lower than 800 nM (ties excluded): NCCCCc1c(-c2ccc(Cl)c(Cl)c2)[nH]c2ccc(Cl)cc12
False

Try this compound too: Cn1nc(C(F)(F)F)c(-c2ccc(F)cc2)c1NC(=O)Nc1ccc(F)cc1
True

# repeat for CCOc1ccc2nc(C)cc(NN=Cc3cccc(F)c3)c2c1
True

Request: CCOc1ccc(Nc2ccc3nonc3c2S(=O)(=O)Nc2ccc(OCC)cc2)cc1
True

Input Cc1c(N)ccc2[nH]c(-c3ccc(N)cc3)nc12
False

// same read-out, input: Nc1cc(-c2ccc(Br)cc2O)nc2ccccc12
True

Next up: COc1cc(Nc2ccc3cc(S(=O)(=O)N4CCCCC4C)ccc3n2)cc(OC)c1OC (configuration not stated)
False

Also check Cc1ccc(-c2ccc3c(c2)C=C(C(=O)NC2CCN(CCNC(=O)c4cccc(C(F)(F)F)c4)CC2)CCC3)cc1
True

Query COc1ccc(NC(=O)/C=C/c2ccccc2Cl)cc1OCCN1CCC(c2nc3ccccc3[nH]2)CC1 next
False

What do you get for COc1ccc(C2CCN(CCCNC(=O)c3ccc(NC(=O)c4ccc(Cl)cc4)cc3)CC2)c(OC)c1 ?
True

Repeat for the following compound: CC(C)CNCc1ccc(-c2cccc(CN(CCCN3CCN(C)CC3)C(=O)/C=C/c3ccccc3)c2)cc1
False

For Cc1ccccc1C1CCN(C2CCC(NC(=O)/C=C/c3cccc(C(F)(F)F)c3)CC2)CC1 (configuration not stated) then?
False

Next up: CCCSc1nc2c(c(=O)n1CCc1ccccc1)C1(CCCC1)Cc1ccccc1-2
True

Moving on to the next compound: FC(F)(F)c1ccc2nc(-c3ccc(-c4cccc(CN5CCC(CCN6CCCCC6)CC5)c4)cc3)[nH]c2c1
True

// query: Cc1cccc2[nH]c(-c3ccc(-c4cccc(CN5CCC(C(N)=O)CC5)c4)cc3)nc12
False

Another compound to check: Cc1ccc(CNC(=O)c2cc3c(=O)n4ccccc4nc3n(CCCN3CCOCC3)c2=N)cc1
False

Another compound to look at: CCCCc1ccc(-c2c(N)nc(N)nc2CC)cc1
False

Now the compound CCCCCCP(=O)(COc1ccc(CCN(CC(O)COc2cccc3[nH]c(C(N)=O)cc23)CC(O)COc2cccc3[nH]c(C(N)=O)cc23)cc1)OCCCC (configuration not stated)
True

Note, next up: CC(C)[C@@H]1c2ccc(O)cc2C[C@H]2C(=O)N(C3CCCCC3)C(=O)N21
False

----------
system: P. falciparum 3D7 growth, pLDH absorbance; test: blood-stage malaria parasite growth potency – strain 3D7, dose response (AID 2305)
MEASUREMENT LABEL: pIC50
# log scale: pIC50 equals minus log10 of the concentration in mol/L

Please provide the recorded pIC50 for CC(C)NC[C@@H](O)[C@H](Cc1ccccc1)NC(=O)c1cc2c3c(c1)c(C(C)C)cn3CCS(=O)(=O)N2C , tested on P. falciparum 3D7 growth, pLDH absorbance.
6.74

How about COc1ccc2nccc([C@@H](O)CN3CCC(NC(=O)c4cc5ccccc5[nH]4)CC3)c2c1 ?
6.01

// same read-out, input: COc1ccccc1CNC(=O)CCn1c(=O)[nH]c2ccsc2c1=O
5.98

Proceed to O=C(/C=C/c1ccc(Cl)c(Cl)c1)NCCCCCN1CCC(NC(=O)Nc2ccc(Oc3ccccc3)cc2)C1 (stereo unspecified)
6.23

Subsequent entry: CC(=Nc1ccc(Cl)c(Cl)c1)N(C)C
6.27

Repeat with COc1cc(Nc2nc(N)c3cc(OC)c(OC)cc3n2)cc(OC)c1
6.57

----------
Measured pIC50 by item
test system: P. falciparum 3D7 growth, pLDH absorbance; assay: blood-stage malaria parasite growth potency – strain 3D7, dose response (AID 2305)
Please treat pIC50 as minus the base-10 logarithm of the molar concentration.

>>> number("COCCNC(=O)c1ccc(OC2CCN(CC(C)=Cc3ccccc3)CC2)c(Cl)c1")
6.19
>>> number("CCC(C)CNC(=O)CN1CN(c2ccccc2)C2(CCN(C(=O)c3ccc(Br)cc3)CC2)C1=O (stereo not drawn)")
5.97
>>> number("FC(F)(F)c1ccc(NC(=S)N2CCC(CCN3CCC(c4c[nH]c5ccccc45)CC3)CC2)cc1")
6.05
>>> number("O=[N+]([O-])c1cc2c(cc1C=NNc1nc(Nc3ccccc3)nc(Nc3ccccc3)n1)OCO2")
6.06
>>> number("COc1cc(Cc2cnc(N)nc2N)ccc1OCc1ccc(-c2ccccc2C#N)cc1")
6.03
>>> number("O=C(NCc1cccc(F)c1)Nc1ccc(-c2cccc(-c3nc4ccccc4[nH]3)c2)cc1")
6.05
>>> number("O=C(c1cc(-c2ccccc2)n[nH]1)N1CCN(S(=O)(=O)c2ccc(Cl)s2)CC1")
6.03

Next molecule, please.
Endpoint output: pIC50 of O=C(CN1CCN(C(=O)c2ccco2)CC1)Nc1ccc(Br)cc1Cl . Value?
6.11

----------
system: P. falciparum 3D7 growth, pLDH absorbance; test: blood-stage malaria parasite growth potency – strain 3D7, dose response (AID 2305)
MEASUREMENT LABEL: pIC50
Units for pIC50: none; it is -log10 of a concentration expressed in mol/L.

Below: 5 compounds and their reported pIC50.
>>> number("Cc1cc(N(C)C)nc(Nc2ccc(NC(=O)c3ccc(F)cc3)cc2)n1")
6.15
>>> number("CCOc1ccc2c(c1)OC(c1ccccc1)(C(F)(F)F)NC2=O (configuration not stated)")
6.77
>>> number("Fc1cccc(COc2ccc(-n3ccc4c(NCCCn5ccnc5)ncnc43)cc2Cl)n1")
5.99
>>> number("c1ccc2[nH]c(-c3ccc(-c4ccc(CN5CCN(CCN6CCOCC6)CC5)cc4)s3)nc2c1")
6.55
>>> number("CC[C@H]1CN2CC[C@@H]1C[C@H]2[C@H](O)c1cc(N2CCC(CO)CC2)nc2ccc(OC)cc12")
6.80

Under P. falciparum 3D7 growth, pLDH absorbance: pIC50 value of Cc1cc(NC(=O)c2ccco2)ccc1OC1CCN(Cc2ccc(F)cc2)C1 (configuration not stated) ?
6.19

Another compound to check: CC[C@H]1CN2CC[C@H]1C[C@H]2[C@H](O)c1cc(-c2ccccc2C)nc2ccc(OC)cc12
6.70

Item: Cc1ccc(NC(=O)NC2CCN(c3ccnc4ccccc34)C2)cc1 (configuration not stated)
6.15

Same again, this time with CC[C@H]1CN2CC[C@H]1C[C@H]2[C@H](O)c1cc(N2CCCC(CO)C2)nc2ccc(OC)cc12 (some centres not stated)
7.10

Then what about the compound CCCCCCCC1CC(CC(=O)Nc2ccnc3ccc(OC)cc23)CN1 (configuration not stated) ?
6.29

----------
Each entry below carries its recorded IC50.
test system: P. falciparum 3D7 growth, pLDH absorbance; experiment: blood-stage malaria parasite growth potency – strain 3D7, dose response (AID 2305)
Put your answer as a value accompanied by its unit after it.

Some solved cases for reference:
>>> result("CCOC(=O)c1[nH]c(-c2cccnc2)nc1NC(=S)NCc1ccccc1")
"710 nM"
>>> result("Cc1ccc2nc(C)cc(NN=Cc3ccc([N+](=O)[O-])cc3)c2c1")
"790 nM"
>>> result("OCCNc1nc(Nc2ccccc2)nc2ccccc12")
"130 nM"
>>> result("COC(=O)c1sc2ccccc2c1NC(=O)c1ccc(C)c(C)c1")
"1070 nM"
>>> result("Cc1ccc(Nc2nccc(NCC(O)c3cccc(F)c3)n2)cc1 (stereo not drawn)")
"670 nM"
>>> result("O=C(Nc1ccc2c(c1)OCO2)NC1CCN(c2ccnc(Nc3ccc(F)cc3)n2)C1 (stereo not drawn)")
"740 nM"
>>> result("Cc1cc(N)c2cc(NC(=O)c3ccc4ccccc4c3)ccc2n1")
"250 nM"
>>> result("O=C(Nc1ccc(F)cc1)c1cnc(N2CCN(c3ccncc3)CC2)c(Cl)c1")
"740 nM"

What value of IC50 has been reported for the following compound? CN1CCN(CC(=O)Nc2cccc(-c3ccc(-c4nc5ccc(C(F)(F)F)cc5[nH]4)s3)c2)CC1
310 nM

Moving on to Nc1nc(N)c2cc(Cc3ccc([N+](=O)[O-])cc3)cnc2n1
940 nM

Another compound to look at: NC1CCN(Cc2cccc(-c3ccc(-c4nc5ccccc5[nH]4)cc3)c2)C1 (stereo not drawn)
830 nM

# iterate: CC(C(=O)Nc1ccc(Br)cc1Br)N1CCN(C(=O)c2ccco2)CC1 (stereo not drawn)
750 nM

Also, O=C(Nc1cccc(Cl)c1Cl)Nc1ccnc2ccccc12 please.
750 nM

----------
Listed here: items and their measured pIC50.
system: P. falciparum 3D7 growth, pLDH absorbance; assay: blood-stage malaria parasite growth potency – strain 3D7, dose response (AID 2305)
Entry type: numeric. Quantity: pIC50, the -log10 of concentration in molar units.

>>> number("O=C(C=Cc1ccc(Cl)c(Cl)c1)NCCCCCN1CCC(CCNS(=O)(=O)c2ccc(F)cc2)CC1")
5.96
>>> number("COc1cc(OC)cc(C(=O)N2CCOC(CCN3CCC(c4ccccc4)CC3)(c3ccc(Cl)c(Cl)c3)C2)c1 (configuration not stated)")
6.36
>>> number("CS(=O)(=O)CCNCc1nc(-c2ccc3ncnc(Nc4ccc(OCc5cccc(F)c5)c(Cl)c4)c3c2)cs1")
6.11
>>> number("Cc1[nH]c(C)c(C2CCC(c3ccc(Cl)cc3)CC2)c(=O)c1Cl (configuration not stated)")
7.30
>>> number("Cc1ccc(Cl)cc1NC(=O)c1c(-c2ccccc2Cl)noc1C")
6.72

Any idea what its pIC50 is? The compound is CCCOc1ccc(NC(=O)c2cccs2)cc1Cl
6.07

Please do the same for CC(C)CCN1CCC(Oc2ccc(NC(=O)c3ccsc3)cc2Cl)CC1 as well.
5.98

Also need CN1CCCC1CCNc1ncc2c(-c3ccc(NC(=O)Nc4cc(C(F)(F)F)ccc4F)cc3)nn(C)c2n1 (configuration not stated) , thanks.
6.47

Note, next up: Cc1cc(Nc2ccc3c(c2)CCC3)n2ncnc2n1
6.01

Now this one: O=C(NC1CCN(CCc2c[nH]c3ccc(F)cc23)CC1)c1ncc(-c2ccccc2)[nH]1
6.06

Now try Clc1cc(Cl)c2cc(CN[C@H]3CCC[C@@H]3CNc3nc4ccccc4[nH]3)[nH]c2c1 .
6.57

Another: CC[C@H](C)CNC(=O)c1cncc(-c2ccc(CN(C)C3CCN(C)CC3)cc2)c1
6.00
